tested on: SRC; settings: concentration: 1 μM, replicates: in singlicate; n = 1;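 also: KINOMEscan kinase panel screen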
Assignment: determine reported %Inh for the given compounds.

Exam item: Which %Inh is listed for CC(=O)Nc1ccc(COc2ccc(Nc3ccnc4cc(-c5ccccn5)ccc34)cc2)cc1.Cl [GW440148] ?
Marked response: 29%

Exam item: Which %Inh is listed for CN(C(=O)c1ccc(-c2cc(-c3c[nH]nc3-c3ccccn3)ccn2)cc1)C1CCOCC1 [GW810083] ?
Marked response: 0%

Exam item: Which %Inh is listed for O=C(NCCNc1ccnc(Nc2ccc(F)cc2)n1)Nc1ccccc1F [GSK1379880] ?
Marked response: 6%

Exam item: Which %Inh is listed for COc1cc2ncn(-c3cc(OCc4sccc4Cl)c(C(N)=O)s3)c2cc1OC [GSK448459] ?
Marked response: 0%

* * *

tested on: RIPK4; conditions: concentration: 1 μM, replicates: in singlicate; n = 1
testReadout: %Inh (%)
Please respond with the number in % and leave the unit unwritten.

Exam item: Provide the documented %Inh with RIPK4 as the system for COc1ccc(Nc2ncc(C#N)c(Nc3ccccc3C(N)=O)n2)cc1N1CCN(C)CC1.Cl
Marked response: 98.9

Exam item: Provide the documented %Inh with RIPK4 as the system for Cc1c2ccc(N(C)c3ccnc(Nc4cccc(S(N)(=O)=O)c4)n3)cc2nn1Cc1ccccc1.Cl.Cl
Marked response: 0

Exam item: Provide the documented %Inh with RIPK4 as the system for CC(C)(C)n1cnc2c(N)ncnc21
Marked response: 67

Exam item: Provide the documented %Inh with RIPK4 as the system for COCCNC(=O)c1ccc(-c2cc(C(=O)NC3CC3)cc(F)c2C)cc1
Marked response: 47

Exam item: Provide the documented %Inh with RIPK4 as the system for COc1ccc(COc2cc(-n3cnc4ccccc43)sc2C(N)=O)cc1
Marked response: 0

Exam item: Provide the documented %Inh with RIPK4 as the system for O=C(Nc1cccc(-c2nn3ncccc3c2-c2ccnc(Nc3cccc(C(F)(F)F)c3)n2)c1)c1c(F)cccc1F
Marked response: 15

* * *

Assignment: determine reported %Inh for the given molecules.
tested on: SNRK; conditions: concentration: 1 μM, replicates: in singlicate; n = 1

Exam item: Provide the documented %Inh with SNRK as the system for Fc1ccc(-c2ncn(CCCN3CCOCC3)c2-c2cccnc2)cc1 [SB-211743]
Marked response: 0%

Exam item: Provide the documented %Inh with SNRK as the system for CSc1ccc(-c2cc3ncnc(SCC(=O)O)c3s2)cc1
Marked response: 0%

Exam item: Provide the documented %Inh with SNRK as the system for COCCNC(=O)c1ccc(-c2cc(C(=O)NC3CC3)cc(F)c2C)cc1 [GW868318]
Marked response: 16%

Exam item: Provide the documented %Inh with SNRK as the system for CN(C(=O)c1ccc(-c2cc(-c3c[nH]nc3-c3ccccn3)ccn2)cc1)C1CCOCC1 [GW810083]
Marked response: 0%

Exam item: Provide the documented %Inh with SNRK as the system for Cn1ccc2ncnc(Oc3ccc(NC(=O)Nc4ccncc4)c(Cl)c3)c21
Marked response: 0%

* * *

tested on: ERK5; construct: gene MAPK7; conditions: concentration: 1 μM, replicates: in singlicate; n = 1
Assignment: determine reported %Inh for the given compounds.
Please respond with the number in % and leave the unit unwritten.

Exam item: Which %Inh is listed for Cc1cccc(Cn2ccn3c(=O)cc(N4CCOCC4)nc23)c1 ?
Marked response: 0

Exam item: Which %Inh is listed for c1ccc(-c2cc(-c3c[nH]nc3-c3ccccn3)ccn2)cc1 ?
Marked response: 0

Exam item: Which %Inh is listed for Nc1nccc(-c2c(-c3ccc(F)cc3)ncn2C2CCN(CC(F)(F)F)CC2)n1 ?
Marked response: 0

Exam item: Which %Inh is listed for O=c1cc(N2CCOCC2)nc2n(Cc3cccc4ccccc34)ccn12 ?
Marked response: 0

Exam item: Which %Inh is listed for CCc1nc(-c2cccc(C)c2)c(-c2ccnc(NCc3ccccc3)c2)s1 ?
Marked response: 3

* * *

tested on: DAPK2; details: concentration: 1 μM, replicates: in singlicate; n = 1
testReadout: %Inh (%)
Please respond with the number in % and leave the unit unwritten.

Exam item: Which %Inh is listed for N#Cc1ccc(-c2cc(-c3c[nH]nc3-c3ccccn3)ccn2)cc1 ?
Marked response: 0

Exam item: Which %Inh is listed for Cc1nnc(-c2ccc3ncc(-c4ccc(S(C)=O)cc4)n3c2)o1 (stereo not drawn) ?
Marked response: 0

Exam item: Which %Inh is listed for N#Cc1c(N2CCOCC2)sc(-c2ccn[nH]2)c1-c1ccc(Cl)cc1 ?
Marked response: 0

Exam item: Which %Inh is listed for Cc1c(Cn2c(C)nn3c(=O)cc(N4CCOC(C)C4)nc23)cccc1C(F)(F)F (stereo not drawn) ?
Marked response: 0

Exam item: Which %Inh is listed for Cc1cn2c(=O)cc(N3CCOCC3)nc2n1Cc1cccc(Cl)c1Cl ?
Marked response: 19

Exam item: Which %Inh is listed for O=C(NCCNc1ccnc(Nc2ccc(F)cc2)n1)c1cc2ccccc2s1 ?
Marked response: 0

Exam item: Which %Inh is listed for CN1c2ccc(CNc3ccc(F)cc3)cc2-c2c(cnn2C)S1(=O)=O ?
Marked response: 0

Exam item: Which %Inh is listed for NS(=O)(=O)c1cccc(-c2ccc3nccc(-c4cccc(S(N)(=O)=O)c4)c3c2)c1 ?
Marked response: 0

Exam item: Which %Inh is listed for O=C(NCCCN1CCOCC1)c1cccc(Nc2nccc(Nc3ccc(Oc4ccccc4)cc3)n2)c1 ?
Marked response: 35

Exam item: Which %Inh is listed for CSc1ccc(-c2cc3ncnc(SCC(=O)O)c3s2)cc1 ?
Marked response: 0

Exam item: Which %Inh is listed for O=C1Cc2cc(Nc3nc(NCc4cccc(S(=O)(=O)C(F)(F)F)c4)ncc3C(F)(F)F)ccc2N1 ?
Marked response: 0

Exam item: Which %Inh is listed for Nc1nc(-c2ccc3c(N)n[nH]c3c2)cc(N2CCCC2)n1 ?
Marked response: 0

Exam item: Which %Inh is listed for Cn1ccc2ncnc(Oc3ccc(NC(=O)Nc4ccncc4)c(Cl)c3)c21 ?
Marked response: 0

Exam item: Which %Inh is listed for Fc1ccc(-c2ncn(CCCN3CCOCC3)c2-c2cccnc2)cc1 ?
Marked response: 0

Exam item: Which %Inh is listed for NS(=O)(=O)c1cccc(-c2ccc3ncc(N4CCOCC4)nc3c2)c1 ?
Marked response: 12

Exam item: Which %Inh is listed for COC(=O)Nc1nc2cc(Oc3ccc(NC(=O)Nc4cc(F)ccc4F)cc3)ccc2[nH]1.Cl ?
Marked response: 0

Exam item: Which %Inh is listed for O=c1cc(N2CCOCC2)nc2n(Cc3cccc(C(F)(F)F)c3)ccn12 ?
Marked response: 9

Exam item: Which %Inh is listed for C[C@@H](Oc1cc(-n2cnc3ccc(NC(=O)NC(C)(C)C)cc32)sc1C(N)=O)c1ccccc1Cl ?
Marked response: 10

Exam item: Which %Inh is listed for Cl.Oc1cccc(Nc2ccnc3cc(-c4ccncc4)ccc23)c1 ?
Marked response: 3

Exam item: Which %Inh is listed for COc1ccc(Nc2ncc(C#N)c(Nc3ccccc3C(N)=O)n2)cc1N1CCN(C)CC1.Cl ?
Marked response: 98.5

Exam item: Which %Inh is listed for Cc1cccc(-c2nc(-c3ccc(S(C)(=O)=O)cc3)sc2-c2ccncc2)c1 ?
Marked response: 0

Exam item: Which %Inh is listed for Cl.Cl.Cl.Fc1ccc(-c2ncn(C3CCNCC3)c2-c2ccnc(Nc3ccccc3)n2)cc1 ?
Marked response: 0

Exam item: Which %Inh is listed for CN1c2ccc(NCc3ccc(F)cc3)cc2-c2c(cnn2C)S1(=O)=O ?
Marked response: 12

Exam item: Which %Inh is listed for CN(C(=O)c1ccc(-c2cc(-c3c[nH]nc3-c3ccccn3)ccn2)cc1)C1CCOCC1 ?
Marked response: 2

Exam item: Which %Inh is listed for O=c1cc(N2CCOCC2)nc2n(Cc3cccc4ccccc34)ccn12 ?
Marked response: 0

Exam item: Which %Inh is listed for COc1cc2c(cc1OCCN1CCN(C)CC1)ncc1c3ccc(C#N)cc3[nH]c21 ?
Marked response: 0

Exam item: Which %Inh is listed for [2H]C([2H])(c1cccc(C(F)(F)F)c1C)n1ccn2c(=O)nc(N3CCOCC3)cc12 ?
Marked response: 0

* * *

tested on: STK35; details: concentration: 1 μM, replicates: in singlicate; n = 1
testReadout: %Inh (%)
Please respond with the number in % and leave the unit unwritten.

Exam item: Which %Inh is listed for CCc1ccnc(/C=C/c2n[nH]c3cc(Sc4ccccc4C(=O)NC)ccc23)c1 ?
Marked response: 0

Exam item: Which %Inh is listed for O=C(NCCNc1ccnc(Nc2ccc(F)cc2)n1)c1cc2ccccc2s1 [GSK1379874] ?
Marked response: 0

Exam item: Which %Inh is listed for Cc1c2ccc(N(C)c3ccnc(Nc4cccc(S(N)(=O)=O)c4)n3)cc2nn1Cc1ccccc1.Cl.Cl [GW787226] ?
Marked response: 0

Exam item: Which %Inh is listed for N#Cc1c(N2CCOCC2)sc(-c2ccn[nH]2)c1-c1ccc(Cl)cc1 ?
Marked response: 0

Exam item: Which %Inh is listed for COc1ccc(S(=O)(=O)NC2CCN(c3cc(C)nc(Nc4cccc(C#N)c4)n3)CC2)cc1.O=C(O)C(F)(F)F [GSK1653539] ?
Marked response: 0

Exam item: Which %Inh is listed for O=C1Cc2cc(Nc3nc(NCc4cccc(S(=O)(=O)C(F)(F)F)c4)ncc3C(F)(F)F)ccc2N1 ?
Marked response: 3

Exam item: Which %Inh is listed for Cc1cn2c(=O)cc(N3CCOCC3)nc2n1Cc1cccc(Cl)c1Cl [GSK2334006] ?
Marked response: 3

Exam item: Which %Inh is listed for Cn1ccc2ncnc(Oc3ccc(NC(=O)Nc4ccncc4)c(Cl)c3)c21 ?
Marked response: 0

Exam item: Which %Inh is listed for CCCCCc1nc2c(N)ncnc2n1CCCCC [SKF-97255] ?
Marked response: 0
